- System: U251 CNS
- protocol.notes: NCI-60 one-dose screen, 48 h (100 = growth as untreated, 0 = no growth, -100 = all killed)
- assay.conditions: 10 µM
The panel holds about 83,000 compounds, 20% with a hit somewhere; the sample as a whole holds those more often.
observation.type: growth (%)

compound="CC(Cc1ccc2c(c1)OCO2)NN (stereo not drawn)" assayed_target="U251 CNS" measurement_unit=% value_reported=88.9
compound=CC(C)c1cc([N+](=O)[O-])cc([N+](=O)[O-])c1O assayed_target="U251 CNS" measurement_unit=% value_reported=103
compound="CC(C)C1(NC(=O)C2CC3c4cccc5[nH]cc(c45)CC3N(C)C2)OC2(O)C3CCCN3C(=O)C(Cc3ccccc3)N2C1=O (stereo not drawn)" assayed_target="U251 CNS" measurement_unit=% value_reported=98.8

###

- Test system: OVCAR-8 ovarian
- protocol.notes: NCI-60 one-dose screen, 48 h (100 = growth as untreated, 0 = no growth, -100 = all killed)
- assay.conditions: 10 µM
Compounds without any hit were thinned out: in the full panel of roughly 83,000, 20% have a hit.
growth listing for selected compounds.
observation.type: growth (%)

compound=O=S(=O)(F)c1ccc(Cl)cc1 value_reported=102
compound="COC12c3c(C)cc(O)c4c(=O)occ(c34)C(=O)C1C13COC(=O)c4c(O)cc(C)c(c41)C(=O)C2C3OC(C)=O (stereo unspecified)" value_reported=105
compound=CC(=O)[O][Hg][c]1c(C)c(C)cc(C)c1C value_reported=15.3
compound=CC(C)(C)OOC(=O)/C=C\C(=O)OOC(C)(C)C value_reported=97.4
compound=O=c1[nH]c2ccccc2n1C1CCN(CCCC(c2ccc(F)cc2)c2ccc(F)cc2)CC1 value_reported=44.3
compound=NNc1ccccc1 value_reported=100
compound="CS(=N)(=O)CCC(N)C(=O)O (stereo unspecified)" value_reported=98
compound=Cc1cc(C)c(C[N+](C)(C)C)c(C)c1C value_reported=6.43
compound=CC(C)c1cc([N+](=O)[O-])cc([N+](=O)[O-])c1O value_reported=104
compound=O=C1CCC(=O)N1SC(Cl)(Cl)Cl value_reported=106
compound="COC1CC2C=C(C)/C=C/C=C/C(=O)NC(c3ccccc3)C/C=C/CCC(O)CC(=O)C2=C1O (stereo unspecified)" value_reported=-69.1

###

- Tested on: MCF7 breast
- protocol.notes: NCI-60 one-dose screen, 48 h (100 = growth as untreated, 0 = no growth, -100 = all killed)
- assay.conditions: 10 µM unless noted
The panel holds about 83,000 compounds, 20% with a hit somewhere; the sample as a whole holds those more often.
Note to self: use yes only for growth readings below 50%; a reading exactly at 50% still gets no.

compound=O=C1C(=O)c2ccccc2-c2ccccc21 label_class=yes
compound=COc1cc(/C=C/[N+](=O)[O-])cc(Br)c1OC label_class=yes
compound="COC1CC2C=C(C)/C=C/C=C/C(=O)NC(c3ccccc3)C/C=C/CCC(O)CC(=O)C2=C1O (configuration not stated)" label_class=yes
compound="CC[C@@]1(O)C[C@H](OC2CC(N(C)C)C(O)C(C)O2)c2c(cc3c(c2O)C(=O)c2c(O)ccc(O)c2C3=O)[C@H]1C(=O)OC (some centres not stated)" label_class=yes
compound=[Cl][Hg][c]1ccc2ccccc2c1 label_class=yes
compound=Oc1c(I)cc(I)cc1I label_class=no
compound="COC12c3c(C)cc(O)c4c(=O)occ(c34)C(=O)C1C13COC(=O)c4c(O)cc(C)c(c41)C(=O)C2C3OC(C)=O (configuration not stated)" label_class=no
compound=NNc1ccccc1 label_class=no
compound=O=C1C=Cc2ccccc2C1=O label_class=no
compound=O=[N+]([O-])c1ccc(Br)c([N+](=O)[O-])c1 label_class=no
compound=C=C1C(=O)O[C@@H]2C[C@@H](C)[C@@H]3C=CC(=O)[C@@]3(C)[C@@H](O)[C@H]12 label_class=yes
compound=COc1cc(/C=C/[N+](=O)[O-])cc(OC)c1OC label_class=yes

// provenance: PubChem BioAssay (NCI)
